Target: T1, Pellino 2 FHA (PELI2 residues 15-275) (human, UniProt Q9HAT8 15-275)
T1 construct: Cloned into pGEX-6P1; also called PELI2 (15–273); N-terminal PELI2 fragment; source: E. coli BL21 (DE3), purified (Glutathione Sepharose, 3C cleavage, gel filtration); not shown: GST, N-terminal, cleaved
T1 sequence (looked up): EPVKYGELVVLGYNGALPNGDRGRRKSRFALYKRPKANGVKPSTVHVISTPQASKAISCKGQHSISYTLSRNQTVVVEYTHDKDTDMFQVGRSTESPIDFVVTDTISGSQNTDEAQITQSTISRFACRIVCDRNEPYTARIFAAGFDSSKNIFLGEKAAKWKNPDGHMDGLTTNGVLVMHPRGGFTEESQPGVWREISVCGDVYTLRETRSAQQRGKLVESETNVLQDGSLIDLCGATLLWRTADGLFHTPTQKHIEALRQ
Test: ITC; peptide in the syringe (typically 160 μM), protein in the cell (16 μM); 25 mM HEPES pH 7.0, 200 mM NaCl, 1 mM TCEP; single-site binding model
Conditions: both partners purified
Square brackets hold non-standard residues; d marks the D form. pT = C[C@@H](OP(=O)(O)O)[C@H](N)C(=O)O
observation_type: dH (kcal/mol)

{"binder": "Ac-AYEDEP[pT]QAFA-NH2 (SMILES CC(=O)N[C@@H](C)C(=O)N[C@@H](Cc1ccc(O)cc1)C(=O)N[C@@H](CCC(=O)O)C(=O)N[C@@H](CC(=O)O)C(=O)N[C@@H](CCC(=O)O)C(=O)N1CCC[C@H]1C(=O)N[C@H](C(=O)N[C@@H](CCC(N)=O)C(=O)N[C@@H](C)C(=O)N[C@@H](Cc1ccccc1)C(=O)N[C@@H](C)C(N)=O)[C@@H](C)OP(=O)(O)O) [MDC1-pT719 phosphopeptide for ITC (AYEDEPpTQAFA)]", "measurement_units": "kcal/mol", "value_observed": -34.7}
{"binder": "Ac-AYSSAS[pT]FLYP-NH2 (SMILES CC(=O)N[C@@H](C)C(=O)N[C@@H](Cc1ccc(O)cc1)C(=O)N[C@@H](CO)C(=O)N[C@@H](CO)C(=O)N[C@@H](C)C(=O)N[C@@H](CO)C(=O)N[C@H](C(=O)N[C@@H](Cc1ccccc1)C(=O)N[C@@H](CC(C)C)C(=O)N[C@@H](Cc1ccc(O)cc1)C(=O)N1CCC[C@H]1C(N)=O)[C@@H](C)OP(=O)(O)O, two N-terminal residues as in the other ITC peptides; IRAK1, stretch around T141 with tyrosine at pT+3; also called IRAK-pT141(+3Y); source: synthetic peptide) [IRAK1-pT141(+3Y) phosphopeptide (AYSSASpTFLYP)]", "measurement_units": "kcal/mol", "value_observed": -25.8}
{"binder": "Ac-AYDLQA[pT]QCFA-NH2 (SMILES CC(=O)N[C@@H](C)C(=O)N[C@@H](Cc1ccc(O)cc1)C(=O)N[C@@H](CC(=O)O)C(=O)N[C@@H](CC(C)C)C(=O)N[C@@H](CCC(N)=O)C(=O)N[C@@H](C)C(=O)N[C@H](C(=O)N[C@@H](CCC(N)=O)C(=O)N[C@@H](CS)C(=O)N[C@@H](Cc1ccccc1)C(=O)N[C@@H](C)C(N)=O)[C@@H](C)OP(=O)(O)O, human MDC1, stretch around T699 with alanine at pT+4; source: synthetic peptide) [MDC1-pT699 phosphopeptide for ITC (AYDLQApTQCFA)]", "measurement_units": "kcal/mol", "value_observed": -19.9}
{"binder": "Ac-AYEDSE[pT]QPFD-NH2 (SMILES CC(=O)N[C@@H](C)C(=O)N[C@@H](Cc1ccc(O)cc1)C(=O)N[C@@H](CCC(=O)O)C(=O)N[C@@H](CC(=O)O)C(=O)N[C@@H](CO)C(=O)N[C@@H](CCC(=O)O)C(=O)N[C@H](C(=O)N[C@@H](CCC(N)=O)C(=O)N1CCC[C@H]1C(=O)N[C@@H](Cc1ccccc1)C(=O)N[C@@H](CC(=O)O)C(N)=O)[C@@H](C)OP(=O)(O)O, two N-terminal residues that are not the MDC1 residues at this place; human MDC1, stretch around T765; Natural stretch with two added N-terminal residues (AY); The crystallisation methods name only 'the MDC1-pT765 phosphopeptide'; also called MDC1-pT765 (Site 4) phosphopeptide; MDC1 p765 peptide; source: synthetic peptide) [MDC1-pT765 phosphopeptide for ITC and crystallisation (AYEDSEpTQPFD)]", "measurement_units": "kcal/mol", "value_observed": -32.7}
